Numbers sourced from paper PMC7854685.

Biological target: PARP2 (Homo sapiens, UniProt Q9UGN5)
Construct: Wild-type PARP1 and PARP2 were expressed and purified as previously described; made in house
Sequence (Q9UGN5 whole entry): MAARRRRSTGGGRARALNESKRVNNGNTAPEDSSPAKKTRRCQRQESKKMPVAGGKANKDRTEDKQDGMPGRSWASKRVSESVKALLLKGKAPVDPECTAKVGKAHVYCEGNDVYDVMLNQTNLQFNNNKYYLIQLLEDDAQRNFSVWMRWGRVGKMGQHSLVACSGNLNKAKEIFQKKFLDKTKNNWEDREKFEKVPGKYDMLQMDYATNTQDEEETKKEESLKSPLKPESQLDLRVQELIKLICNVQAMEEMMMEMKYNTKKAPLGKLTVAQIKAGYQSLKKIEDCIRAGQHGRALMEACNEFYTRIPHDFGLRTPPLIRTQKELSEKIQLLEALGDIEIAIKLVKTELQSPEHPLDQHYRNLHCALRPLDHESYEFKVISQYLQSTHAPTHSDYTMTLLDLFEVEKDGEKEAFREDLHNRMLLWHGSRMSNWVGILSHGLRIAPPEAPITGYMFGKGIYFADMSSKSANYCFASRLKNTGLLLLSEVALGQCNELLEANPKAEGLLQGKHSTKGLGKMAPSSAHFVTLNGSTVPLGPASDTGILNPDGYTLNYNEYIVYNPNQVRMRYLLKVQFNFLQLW
Test: Fluorescence polarization association/dissociation of fl-Ola, with p18mer or Nuc165, with or without HPF1
Type: binding
Conditions: PARP2, p18mer
Measured Metric: Kd (nM)
# unit: nM | format: bare number

Given CC1=CC(C)=[N+]2C1=Cc1ccc(CCC(=O)N3CCN(C(=O)c4cc(Cc5n[nH]c(=O)c6ccccc56)ccc4F)CC3)n1[B-]2(F)F , state its recorded Kd.
0.0141

---

Molecular target: PARP1 (Homo sapiens, UniProt P09874)
Sequence (P09874 whole entry): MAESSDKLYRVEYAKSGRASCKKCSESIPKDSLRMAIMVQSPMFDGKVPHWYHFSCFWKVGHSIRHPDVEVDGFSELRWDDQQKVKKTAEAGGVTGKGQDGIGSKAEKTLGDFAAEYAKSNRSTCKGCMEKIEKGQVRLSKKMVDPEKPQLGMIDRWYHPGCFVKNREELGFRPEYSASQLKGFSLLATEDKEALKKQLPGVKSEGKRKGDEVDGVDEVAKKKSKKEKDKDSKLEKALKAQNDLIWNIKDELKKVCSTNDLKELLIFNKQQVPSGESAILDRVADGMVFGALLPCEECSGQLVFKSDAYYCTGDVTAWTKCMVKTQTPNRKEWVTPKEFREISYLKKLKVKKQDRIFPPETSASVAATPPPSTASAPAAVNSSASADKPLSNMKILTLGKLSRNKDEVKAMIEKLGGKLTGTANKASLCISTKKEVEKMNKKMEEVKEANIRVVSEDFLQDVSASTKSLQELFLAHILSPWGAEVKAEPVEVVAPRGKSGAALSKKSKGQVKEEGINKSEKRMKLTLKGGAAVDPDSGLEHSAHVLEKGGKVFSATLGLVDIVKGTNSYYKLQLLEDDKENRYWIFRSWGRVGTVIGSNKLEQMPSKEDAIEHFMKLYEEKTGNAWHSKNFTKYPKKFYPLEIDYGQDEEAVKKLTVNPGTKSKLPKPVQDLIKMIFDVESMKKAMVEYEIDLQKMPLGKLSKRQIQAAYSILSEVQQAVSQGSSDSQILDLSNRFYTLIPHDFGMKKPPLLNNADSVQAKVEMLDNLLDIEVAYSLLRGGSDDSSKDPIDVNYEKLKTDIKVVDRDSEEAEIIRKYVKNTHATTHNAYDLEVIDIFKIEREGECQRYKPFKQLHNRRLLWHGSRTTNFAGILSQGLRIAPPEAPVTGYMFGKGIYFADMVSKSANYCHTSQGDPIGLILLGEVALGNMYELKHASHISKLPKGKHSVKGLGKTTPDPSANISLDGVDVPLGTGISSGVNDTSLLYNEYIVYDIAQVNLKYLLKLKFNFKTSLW
Test: Release of fluorescently labeled p18mer DNA (fluorescence polarization) upon NAD+ addition, KI determination for PARPi, with or without HPF1
Assay type: biochemical
Parameters: Wild-type PARP1 and PARP2 were expressed and purified as previously described; made in house
Details: PARP1, +HPF1, average; read-out: Ki average
Measured Metric: pKi
Scale: negative log10 of molar concentration, which is what pKi denotes.

Reported pKi, compound COC1CCN(C(=O)c2cc(Cc3n[nH]c(=O)c4ccccc34)ccc2F)CC1 : ____
9.11

---

Target: PARP1 (Homo sapiens, UniProt P09874)
Test: Release of fluorescently labeled p18mer DNA (fluorescence polarization) upon NAD+ addition, KI determination for PARPi, with or without HPF1
Type: biochemical
Set-up: Wild-type PARP1 and PARP2 were expressed and purified as previously described; made in house
Conditions: PARP1, without HPF1, average
Measured Metric: t1/2est average (s)
Please respond with the number in s and leave the unit unwritten.

Can you look up the measured t1/2est average of Cn1ncnc1[C@H]1c2n[nH]c(=O)c3cc(F)cc(c23)N[C@@H]1c1ccc(F)cc1 for me?
7303

Which t1/2est average value is on record for CNCc1ccc(-c2[nH]c3cc(F)cc4c3c2CCNC4=O)cc1 ?
3450

---

Target: PARP1 (Homo sapiens)
Test: Release of fluorescently labeled p18mer DNA (fluorescence polarization) upon NAD+ addition, KI determination for PARPi, with or without HPF1
Assay type: biochemical
Set-up: Wild-type PARP1 and PARP2 were expressed and purified as previously described; made in house
Settings: PARP1, without HPF1, average; read-out: Ki average
Measured Metric: pKi
On this scale, pKi is minus log10 of a concentration expressed in M (mol/L).

Consider the compound shown here: COC1CCN(C(=O)c2cc(Cc3n[nH]c(=O)c4ccccc34)ccc2F)CC1 What is its recorded pKi?
8.65

---

Target: PARP2 (Homo sapiens)
Construct: Wild-type PARP1 and PARP2 were expressed and purified as previously described; made in house
Assay: Fluorescence polarization association/dissociation of fl-Ola, with p18mer or Nuc165, with or without HPF1;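 also: fluorescence polarization read every minute over 1000 min, association and dissociation traces fitted to a single exponential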
Type: binding
Settings: PARP2, p18mer/HPF1
Measured Metric: Kd (nM)
// note: answer is a bare numeric in nM

Which Kd reading was recorded for the compound CC1=CC(C)=[N+]2C1=Cc1ccc(CCC(=O)N3CCN(C(=O)c4cc(Cc5n[nH]c(=O)c6ccccc56)ccc4F)CC3)n1[B-]2(F)F ?
0.0205

---

# key: entry, value: t1/2est average
Molecular target: PARP1 (Homo sapiens, UniProt P09874)
Assay: Release of fluorescently labeled p18mer DNA (fluorescence polarization) upon NAD+ addition, KI determination for PARPi, with or without HPF1
Assay type: biochemical
Design: Wild-type PARP1 and PARP2 were expressed and purified as previously described; made in house
Details: PARP1, +HPF1, average
Just the number in min, nothing appended.

Worked set:
COC1CCN(C(=O)c2cc(Cc3n[nH]c(=O)c4ccccc34)ccc2F)CC1 [AZD] :: 20.75
NC(=O)c1cccc2cn(-c3ccc([C@@H]4CCCNC4)cc3)nc12 [Nira] :: 28.33
CNCc1ccc(-c2[nH]c3cc(F)cc4c3c2CCNC4=O)cc1 [Rucaparib] :: 250

Here's the next entry for you.
Given NC(=O)c1cccc2[nH]c(-c3ccc([C@@H]4CCCN4)cc3F)nc12 [A-966492] , state its recorded t1/2est average.
38.5

---

Target: PARP1 (Homo sapiens, UniProt P09874)
Experiment: Release of fluorescently labeled p18mer DNA (fluorescence polarization) upon NAD+ addition, KI determination for PARPi, with or without HPF1;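 also: PARP1 bound to fluorescein-tagged DNA and preincubated with inhibitor, then high NAD+ added, drop in fluorescence polarization tracked as the DNA dissociates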
Type: biochemical
Set-up: Wild-type PARP1 and PARP2 were expressed and purified as previously described; made in house
Conditions: PARP1, without HPF1, average
Measured Metric: t1/2est average
Hi, when you answer, please include the unit after the number. Thanks!

Fill in: t1/2est average of NC(=O)c1cccc2cn(-c3ccc([C@@H]4CCCNC4)cc3)nc12 is ___
8.7 min

Please give the measured t1/2est average for this molecule: COC1CCN(C(=O)c2cc(Cc3n[nH]c(=O)c4ccccc34)ccc2F)CC1
4.72 min

Tell me the measured t1/2est average of NC(=O)c1cccc2[nH]c(-c3ccc([C@@H]4CCCN4)cc3F)nc12 , please.
4.58 min
